target: MarA (Escherichia coli); assay: Selective marker (ccdB) under MarA-activated promoter; cell survival under MarA expression (Example 2); assay type: cell-based; parameters: key: *: good inhibition of MarA; **: very good inhibition of MarA; conditions: inhibition of MarA; cell survival under conditions of MarA expression
Sequence (P0ACH5 whole entry, looked up): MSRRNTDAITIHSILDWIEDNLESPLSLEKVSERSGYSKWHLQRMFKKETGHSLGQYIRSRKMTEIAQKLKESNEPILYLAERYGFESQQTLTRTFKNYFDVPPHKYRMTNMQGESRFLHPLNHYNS
TEST_READOUT: MarA inhibition score (cell survival)

1) CCOC(=O)C1=C(C)N=c2sc(=Cc3ccc(-c4ccc([N+](=O)[O-])cc4C)o3)c(=O)n2C1c1ccc2c(c1)OCO2 (stereo not shown)
*
2) CCOC(=O)C1=C(C)N=c2s/c(=C/c3ccc(-c4cccc(C(F)(F)F)c4)o3)c(=O)n2C1c1ccccc1 (stereo not shown)
**
3) CCCSc1nnc2c(n1)OC(c1ccc(-c3cccc([N+](=O)[O-])c3)o1)Nc1ccccc1-2 (stereo not shown)
**
4) CCOc1ccc(C2Nc3ccccc3-c3nnc(SC)nc3O2)cc1 (stereo not shown)
*
5) O=C(O)COn1c(-c2ccccc2)nc2ccc([N+](=O)[O-])cc21 [BD]
*
6) CCSc1nnc2c(n1)OC(c1ccc(O)c(O)c1)Nc1ccccc1-2 (stereo not shown)
*
7) COn1c(-c2ccc(C)cc2)nc2ncccc21
*
8) O=c1cc(-c2ccc(F)cc2)oc2ccccc12
*
9) COC(=O)c1ccccc1NC(=O)CSc1nnc(-c2ccco2)n1-c1ccccc1
*
10) CCOC(=O)C1=C(C)N=c2s/c(=C\c3ccc(-c4cccc(C(=O)O)c4)o3)c(=O)n2C1c1c(OC)ccc2ccccc12 (stereo not shown)
**
11) C=Cc1nc2s/c(=C\c3cn(-c4ccccc4)nc3-c3ccc(F)cc3)c(=O)n2c1C
**
12) CSc1nnc2c(n1)OC(c1ccc(-c3ccc([N+](=O)[O-])cc3)o1)Nc1ccccc1-2 (stereo not shown)
*
13) O=c1cc(-c2ccccc2)oc2ccc(F)cc12
**
14) O=c1/c(=C/c2c[nH]nc2-c2ccccc2)sc2nc3ccccc3n12
**
15) N#Cc1c(-c2ccc3c(c2)OCO3)c(C#N)c2nc3ccccc3n2c1N
**
16) O=[N+]([O-])c1ccc2nc(-c3ccccc3)n(OCc3cccc(C(F)(F)F)c3)c2c1
**
17) c1ccc(COn2c(-c3ccccc3)nc3ncccc32)cc1
**
18) C=CCOc1ccc(C2Nc3ccccc3-c3nnc(SCCCC)nc3O2)cc1 (stereo not shown)
**
19) c1ccc(CSc2ncc(-c3nnnn3-c3ccccc3)c(-c3ccccc3)n2)cc1
**
